test-method-notes: Hemolytic activity in rabbit RBC assessed as induction of hemolysis
Assay type: cell-based, Oryctolagus cuniculus, Erythrocyte
run-conditions: red blood cells, read-out: HD50 (the source's name)
HC50 for assorted compounds
reported-metric: HC50 (µM)

smiles-data	obs-value
C[C@@H]1O[C@@H](O[C@H]2[C@H](O[C@H]3CC[C@@]4(C)[C@@H](CC[C@]5(C)[C@@H]4CC=C4[C@@H]6CC(C)(C)CC[C@]6(C(=O)O)CC[C@]45C)[C@]3(C)CO)OC[C@H](O)[C@@H]2O)[C@H](O)[C@H](O)[C@H]1O	7.5
C[C@@H]1O[C@@H](O[C@H]2[C@H](O[C@H]3CC[C@@]4(C)[C@@H](CC[C@]5(C)[C@@H]4CC=C4[C@@H]6CC(C)(C)CC[C@]6(C(=O)N6CCC[C@@H]6C(=O)O)CC[C@]45C)[C@]3(C)CO)OC[C@H](O)[C@@H]2O)[C@H](O)[C@H](O)[C@H]1O	22.9
C[C@@H]1O[C@@H](O[C@H]2[C@H](O[C@H]3CC[C@@]4(C)[C@@H](CC[C@]5(C)[C@@H]4CC=C4[C@@H]6CC(C)(C)CC[C@]6(C(=O)N6CCN(CCC(=O)O)CC6)CC[C@]45C)[C@]3(C)CO)OC[C@H](O[C@@H]3O[C@H](CO)[C@@H](O)[C@H](O)[C@H]3O)[C@@H]2O)[C@H](O)[C@H](O)[C@H]1O	119

---

test-method-notes: Hemolytic activity in rabbit RBC assessed as induction of hemolysis
Format: cell-based, Oryctolagus cuniculus, Erythrocyte
run-conditions: red blood cells, read-out: HD50 (the source's name)
Label key: met means HC50 under 60 µM; not met means HC50 of 60 µM or more.

smiles-data	group
CC(=O)OCOC(=O)[C@]12CCC(C)(C)C[C@H]1C1=CC[C@@H]3[C@@]4(C)CC[C@H](O[C@@H]5OC[C@H](O)[C@H](O)[C@H]5O[C@@H]5O[C@@H](C)[C@H](O)[C@@H](O)[C@H]5O)[C@@](C)(CO)[C@@H]4CC[C@@]3(C)[C@]1(C)CC2	met
C[C@@H]1O[C@@H](O[C@H]2[C@H](O[C@H]3CC[C@@]4(C)[C@@H](CC[C@]5(C)[C@@H]4CC=C4[C@@H]6CC(C)(C)CC[C@]6(C(=O)N6CCN(CCC(=O)O)CC6)CC[C@]45C)[C@]3(C)CO)OC[C@H](O)[C@@H]2O)[C@H](O)[C@H](O)[C@H]1O	not met
C[C@@H]1O[C@@H](O[C@H]2[C@H](O[C@H]3CC[C@@]4(C)[C@@H](CC[C@]5(C)[C@@H]4CC=C4[C@@H]6CC(C)(C)CC[C@]6(C(=O)N[C@H](CO)C(=O)O)CC[C@]45C)[C@]3(C)CO)OC[C@H](O)[C@@H]2O)[C@H](O)[C@H](O)[C@H]1O	met
COC(=O)CCN1CCN(C(=O)[C@]23CCC(C)(C)C[C@H]2C2=CC[C@@H]4[C@@]5(C)CC[C@H](O[C@@H]6OC[C@H](O)[C@H](O)[C@H]6O[C@@H]6O[C@@H](C)[C@H](O)[C@@H](O)[C@H]6O)[C@@](C)(CO)[C@@H]5CC[C@@]4(C)[C@]2(C)CC3)CC1	met
C[C@@H]1O[C@@H](O[C@H]2[C@H](O[C@H]3CC[C@@]4(C)[C@@H](CC[C@]5(C)[C@@H]4CC=C4[C@@H]6CC(C)(C)CC[C@]6(C(=O)NCC(=O)O)CC[C@]45C)[C@]3(C)CO)OC[C@H](O)[C@@H]2O)[C@H](O)[C@H](O)[C@H]1O	not met
C[C@@H]1O[C@@H](O[C@H]2[C@H](O[C@H]3CC[C@@]4(C)[C@@H](CC[C@]5(C)[C@@H]4CC=C4[C@@H]6CC(C)(C)CC[C@]6(C(=O)N6CCOCC6)CC[C@]45C)[C@]3(C)CO)OC[C@H](O)[C@@H]2O)[C@H](O)[C@H](O)[C@H]1O	not met
C[C@@H]1O[C@@H](O[C@H]2[C@H](O[C@H]3CC[C@@]4(C)[C@@H](CC[C@]5(C)[C@@H]4CC=C4[C@@H]6CC(C)(C)CC[C@]6(C(N)=O)CC[C@]45C)[C@]3(C)CO)OC[C@H](O)[C@@H]2O)[C@H](O)[C@H](O)[C@H]1O	met
COC(=O)[C@@H](CO)NC(=O)[C@]12CCC(C)(C)C[C@H]1C1=CC[C@@H]3[C@@]4(C)CC[C@H](O[C@@H]5OC[C@H](O)[C@H](O)[C@H]5O[C@@H]5O[C@@H](C)[C@H](O)[C@@H](O)[C@H]5O)[C@@](C)(CO)[C@@H]4CC[C@@]3(C)[C@]1(C)CC2	not met
COC(=O)[C@H]1CCCN1C(=O)[C@]12CCC(C)(C)C[C@H]1C1=CC[C@@H]3[C@@]4(C)CC[C@H](O[C@@H]5OC[C@H](O)[C@H](O)[C@H]5O[C@@H]5O[C@@H](C)[C@H](O)[C@@H](O)[C@H]5O)[C@@](C)(CO)[C@@H]4CC[C@@]3(C)[C@]1(C)CC2	not met
C[C@@H]1O[C@@H](O[C@H]2[C@H](O[C@H]3CC[C@@]4(C)[C@@H](CC[C@]5(C)[C@@H]4CC=C4[C@@H]6CC(C)(C)CC[C@]6(C(=O)NCC(=O)O)CC[C@]45C)[C@]3(C)CO)OC[C@H](O[C@@H]3O[C@H](CO)[C@@H](O)[C@H](O)[C@H]3O)[C@@H]2O)[C@H](O)[C@H](O)[C@H]1O	not met
COC(=O)[C@]12CCC(C)(C)C[C@H]1C1=CC[C@@H]3[C@@]4(C)CC[C@H](O[C@@H]5OC[C@H](O)[C@H](O)[C@H]5O[C@@H]5O[C@@H](C)[C@H](O)[C@@H](O)[C@H]5O)[C@@](C)(CO)[C@@H]4CC[C@@]3(C)[C@]1(C)CC2	met
C[C@@H]1O[C@@H](O[C@H]2[C@H](O[C@H]3CC[C@@]4(C)[C@@H](CC[C@]5(C)[C@@H]4CC=C4[C@@H]6CC(C)(C)CC[C@]6(C(=O)Nc6ccc(C(=O)O)cc6)CC[C@]45C)[C@]3(C)CO)OC[C@H](O)[C@@H]2O)[C@H](O)[C@H](O)[C@H]1O	not met
